Molecular target: T1, CD33M, full length human CD33 protein expressed on transfected cells (human, UniProt P20138 18-303)
T1 construct: also called full length CD33
T1 sequence (P20138 18-303): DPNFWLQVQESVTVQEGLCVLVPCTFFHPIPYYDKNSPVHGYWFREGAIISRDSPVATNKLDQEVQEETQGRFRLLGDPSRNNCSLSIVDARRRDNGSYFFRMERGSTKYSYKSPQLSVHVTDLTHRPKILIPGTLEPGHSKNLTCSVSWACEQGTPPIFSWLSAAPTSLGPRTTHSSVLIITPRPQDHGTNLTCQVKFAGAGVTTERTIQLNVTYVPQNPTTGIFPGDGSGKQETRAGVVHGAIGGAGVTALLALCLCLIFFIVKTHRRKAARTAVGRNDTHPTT
Assay: flow cytometry on MOLM-13 cells transfected with CD33 (CD33M per Table 3), anti-human IgG Alexa Fluor 647 secondary, median fluorescence
The entries below are paired with their reported EC50 (read off the curve).

Examples from the recorded data:
[
  {
    "binder": "1H9 sdAb (1H9 VHH domain fused to human IgG1 xELL Fc region) (Fc fusion, VHH-Fc; no linker stated; also called 1H9-IgG1) EVQLQQSGGAVVQPGGSLRLSCAASGSIFSISIMGWYRQAPGKERELVASTTSSGTTNYVDSVKGRFTASRDNAKNTVYLQMNSLKPDDTAIYHCHAYIATTTDRGYRGYWGQGTQVTVDKTHTCPPCPAPGGPSVFLFPPKPKDTLMISRTPEVTCVVVDVSHEDPEVKFNWYVDGVEVHNAKTKPREEQYNSTYRVVSVLTVLHQDWLNGKEYKCKVSNKALPAPIEKTISKAKGQPREPQVYTLPPSRDELTKNQVSLTCLVKGFYPSDIAVEWESNGQPENNYKTTPPVLDSDGSFFLYSKLTVDKSRWQQGNVFSCSVMHEALHNHYTQKSLSLSPGK",
    "quantity_kind": "EC50 (read off the curve)",
    "result": "~0.2 nM"
  },
  {
    "binder": "hz1G3v3 sdAb (hz1G3v3 VHH domain fused to human IgG1 xELL Fc region) (Fc fusion, VHH-Fc; no linker stated; also called hz1G3v3-IgG1) EVQLVESGGGEVQPGGSLRLSCAASGFTFSSYAMGWFRQAPGKGREWVAAITTSGDTTYYAESVKGRFTISRDNAKNTVYLQMSSLRAEDTAVYYCAAHRGGGVIDYWGQGTLVTVDKTHTCPPCPAPGGPSVFLFPPKPKDTLMISRTPEVTCVVVDVSHEDPEVKFNWYVDGVEVHNAKTKPREEQYNSTYRVVSVLTVLHQDWLNGKEYKCKVSNKALPAPIEKTISKAKGQPREPQVYTLPPSRDELTKNQVSLTCLVKGFYPSDIAVEWESNGQPENNYKTTPPVLDSDGSFFLYSKLTVDKSRWQQGNVFSCSVMHEALHNHYTQKSLSLSPGK",
    "quantity_kind": "EC50 (read off the curve)",
    "result": "~2 nM"
  }
]

Qu. What value of EC50 (read off the curve) has been recorded for this entry: 1E4 sdAb (1E4 VHH domain fused to human IgG1 xELL Fc region) (Fc fusion, VHH-Fc; no linker between VHH and Fc is stated; also called 1E4-IgG1) QVQLQQSGGGSVQAGGSLRLSCVASGSGFSASLMSWHRQAPGSQRDLVASITRDGRANYVDSVKDRFTISRDNAKNTAYLQMDSLKPEDTAAYYCHAYSFDYPIRSYWGQGTQVTVDKTHTCPPCPAPGGPSVFLFPPKPKDTLMISRTPEVTCVVVDVSHEDPEVKFNWYVDGVEVHNAKTKPREEQYNSTYRVVSVLTVLHQDWLNGKEYKCKVSNKALPAPIEKTISKAKGQPREPQVYTLPPSRDELTKNQVSLTCLVKGFYPSDIAVEWESNGQPENNYKTTPPVLDSDGSFFLYSKLTVDKSRWQQGNVFSCSVMHEALHNHYTQKSLSLSPGK
Ans. ~0.07 nM

Qu. What value of EC50 (read off the curve) has been recorded for this entry: hz1E4v2 sdAb (hz1E4v2 VHH domain fused to human IgG1 xELL Fc region) (Fc fusion, VHH-Fc; no linker stated; also called hz1E4v2-IgG1) EVQLVESGGGEVQPGGSLRLSCAASGSGFSASLMSWHRQAPGKQRDLVASITRDGRANYVESVKGRFTISRDNAKNTLYLQMSSLRAEDTAVYYCHAYSFDYPIRSYWGQGTLVTVDKTHTCPPCPAPGGPSVFLFPPKPKDTLMISRTPEVTCVVVDVSHEDPEVKFNWYVDGVEVHNAKTKPREEQYNSTYRVVSVLTVLHQDWLNGKEYKCKVSNKALPAPIEKTISKAKGQPREPQVYTLPPSRDELTKNQVSLTCLVKGFYPSDIAVEWESNGQPENNYKTTPPVLDSDGSFFLYSKLTVDKSRWQQGNVFSCSVMHEALHNHYTQKSLSLSPGK
Ans. ~0.3 nM

Qu. What value of EC50 (read off the curve) has been recorded for this entry: hz1H9v2 sdAb (hz1H9v2 VHH domain fused to human IgG1 xELL Fc region) (Fc fusion, VHH-Fc; no linker stated; also called hz1H9v2-IgG1) EVQLVESGGGEVQPGGSLRLSCAASGSIFSISIMGWYRQAPGKERELVASTTSSGTTNYVESVKGRFTISRDNAKNTLYLQMSSLRAEDTAVYYCHAYIATTTDRGYRGYWGQGTLVTVDKTHTCPPCPAPGGPSVFLFPPKPKDTLMISRTPEVTCVVVDVSHEDPEVKFNWYVDGVEVHNAKTKPREEQYNSTYRVVSVLTVLHQDWLNGKEYKCKVSNKALPAPIEKTISKAKGQPREPQVYTLPPSRDELTKNQVSLTCLVKGFYPSDIAVEWESNGQPENNYKTTPPVLDSDGSFFLYSKLTVDKSRWQQGNVFSCSVMHEALHNHYTQKSLSLSPGK
Ans. ~0.3 nM
